These data points were gathered from ChEMBL document CHEMBL4616671.

assay: Intrinsic hepatic clearance in monkey; format: ADME, Macaca mulatta; conditions: rhesus monkey, in vivo
reportedMetric: CLH (mL/min/kg)

{"compound": "CC(O)(C#Cc1ccc2c(c1)N(c1nc(N)ncc1Cl)CC2)c1nccs1 (configuration not stated)", "numericResult": 300}
{"compound": "CC(O)(C#Cc1ccc(N2CCOCC2)c(Nc2ncnc3[nH]ccc23)c1)c1nccs1 (racemic)", "numericResult": 111}

---

experiment: Initial plasma concentration in Sprague-Dawley rat at 1 mg/kg, iv administered as single bolus dose by LC-MS/MS analysis; assay type: ADME, organism-based

{"molecule": "CC(O)(C#Cc1ccc(N2CCOCC2)c(Nc2ncnc3[nH]ccc23)c1)c1nccs1 (racemic)", "displayUnit": "ng/mL", "C0": 377}

---

biological target: Mitogen-activated protein kinase kinase kinase 14 (Homo sapiens, UniProt Q99558); test: Inhibition of recombinant N-terminal GST-fused human NIK (319 to 947 residues) expressed in baculovirus expression system incubated for 120 mins in presence of ATP by ADP-glo based luminescence assay
Sequence (Q99558 whole entry, the tested form may be a part): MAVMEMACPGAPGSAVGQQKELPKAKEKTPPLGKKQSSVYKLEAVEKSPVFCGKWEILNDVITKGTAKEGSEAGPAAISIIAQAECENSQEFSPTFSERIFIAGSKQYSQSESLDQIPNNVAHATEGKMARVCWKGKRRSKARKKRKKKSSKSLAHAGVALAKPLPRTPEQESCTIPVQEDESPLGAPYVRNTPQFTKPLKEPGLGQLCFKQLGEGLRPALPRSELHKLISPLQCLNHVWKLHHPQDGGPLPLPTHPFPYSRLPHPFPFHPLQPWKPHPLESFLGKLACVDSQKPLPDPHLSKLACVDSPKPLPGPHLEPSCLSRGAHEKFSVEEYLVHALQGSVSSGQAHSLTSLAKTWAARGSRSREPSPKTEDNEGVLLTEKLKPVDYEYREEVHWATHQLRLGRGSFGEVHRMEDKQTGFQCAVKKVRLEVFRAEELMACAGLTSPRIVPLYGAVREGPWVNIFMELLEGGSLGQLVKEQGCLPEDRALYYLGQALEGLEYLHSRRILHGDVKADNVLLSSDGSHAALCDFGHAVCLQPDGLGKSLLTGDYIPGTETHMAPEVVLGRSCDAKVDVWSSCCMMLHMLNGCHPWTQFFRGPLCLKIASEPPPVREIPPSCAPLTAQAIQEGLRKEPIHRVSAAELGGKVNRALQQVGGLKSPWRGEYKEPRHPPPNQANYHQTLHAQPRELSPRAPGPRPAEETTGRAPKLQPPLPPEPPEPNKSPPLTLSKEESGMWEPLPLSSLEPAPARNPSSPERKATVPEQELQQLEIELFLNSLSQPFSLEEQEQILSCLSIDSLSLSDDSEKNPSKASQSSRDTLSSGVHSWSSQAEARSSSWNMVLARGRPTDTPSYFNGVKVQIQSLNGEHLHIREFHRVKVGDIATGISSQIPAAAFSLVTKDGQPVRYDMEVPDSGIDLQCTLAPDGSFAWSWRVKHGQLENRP
pIC50: −log10 of the molar value.
Recorded pIC50 by entry

{"compound": "CC(O)(C#Cc1ccc(N2CCCC2)c(Nc2ncnc3[nH]ccc23)c1)c1nccs1 (stereo not given)", "systemTested": "Mitogen-activated protein kinase kinase kinase 14 (Homo sapiens, UniProt Q99558)", "pIC50": 6.97}
{"compound": "CN1CCN(c2ccc(C#CC(C)(O)c3nccs3)cc2Nc2ncnc3[nH]ccc23)CC1 (stereo not given)", "systemTested": "Mitogen-activated protein kinase kinase kinase 14 (Homo sapiens, UniProt Q99558)", "pIC50": 7.11}
{"compound": "CCS(=O)(=O)N1CCN(c2ccc(C#CC(C)(O)c3nccs3)cc2Nc2ncnc3[nH]ccc23)CC1 (stereo not given)", "systemTested": "Mitogen-activated protein kinase kinase kinase 14 (Homo sapiens, UniProt Q99558)", "pIC50": 8.09}
{"compound": "CC(O)(C#Cc1ccc(N2CCOCC2)c(Nc2ncnc3[nH]ncc23)c1)c1nccs1 (stereo not given)", "systemTested": "Mitogen-activated protein kinase kinase kinase 14 (Homo sapiens, UniProt Q99558)", "pIC50": 8.06}
{"compound": "CN1CCCN(c2ccc(C#CC(C)(O)c3nccs3)cc2Nc2ncnc3[nH]ccc23)CC1 (stereo not given)", "systemTested": "Mitogen-activated protein kinase kinase kinase 14 (Homo sapiens, UniProt Q99558)", "pIC50": 7.22}

---

test: Oral bioavailability in Sprague-Dawley rat at 10 mg/kg administered via gavage by LC-MS/MS analysis; type: ADME, organism-based; details: in vivo
reportedMetric: bioavailability

{"compound": "CC(O)(C#Cc1ccc(N2CCOCC2)c(Nc2ncnc3[nH]ccc23)c1)c1nccs1 (racemic)", "reportedMetric": "bioavailability", "result": "64%"}

---

test: AUC (0 to infinity) in Sprague-Dawley rat at 10 mg/kg, po administered via gavage by LC-MS/MS analysis; format: ADME, organism-based; set-up: dose 10 mg/kg, time infinity, route oral; conditions: in vivo

{"compound": "CC(O)(C#Cc1ccc(N2CCOCC2)c(Nc2ncnc3[nH]ccc23)c1)c1nccs1 (racemic)", "AUC(0-inf) [ng·h/mL]": 2680}

---

test: Elimination half life in monkey liver microsomes incubated for 10 mins followed by potassium phosphate buffer addition and measured after 5 to 60 mins by LC-MS/MS analysis; format: ADME, Macaca mulatta, Microsome; conditions: rhesus monkey, read-out: beta t1/2

{"compound": "CC(O)(C#Cc1ccc(N2CCOCC2)c(Nc2ncnc3[nH]ccc23)c1)c1nccs1 (racemic)", "half-life [min]": 18}
{"compound": "CC(O)(C#Cc1ccc2c(c1)N(c1nc(N)ncc1Cl)CC2)c1nccs1 (configuration not stated)", "half-life [min]": 6.66}
